Target: Aminopeptidase N (Homo sapiens)
Assay: In vitro inhibition of aminopeptidase N (APN) activity in intact U937 cells in presence of Ala-pNA and 10e-3 M concentration of compound
Format: cell-based
Details: U-937
PROPERTY_LABEL: inhibition (%)
Write the answer as a number in %, unit excluded.

Examples from the recorded data:
- COMPOUND: "Cl.Nc1c(-c2ccccc2)oc2c(CC(=O)O)cccc2c1=O"
  inhibition, %: 33
- COMPOUND: "COc1ccc(-c2oc3c(CC(=O)O)cccc3c(=O)c2[N+](=O)[O-])cc1[N+](=O)[O-]"
  inhibition, %: 61
- COMPOUND: "O=c1c([N+](=O)[O-])c(-c2ccccc2)oc2ccccc12"
  inhibition, %: 30
- COMPOUND: "O=C(O)Cc1cccc2c(=O)c3c(oc12)-c1ccccc1NC(=O)N3"
  inhibition, %: 8
- COMPOUND: "COCOC(=O)Cc1cccc2c(=O)c([N+](=O)[O-])c(-c3ccccc3[N+](=O)[O-])oc12"
  inhibition, %: 48

Would you please give the reported inhibition of O=c1cc(-c2ccccc2)oc2ccccc12 [FLAVONE] with Aminopeptidase N (Homo sapiens)?
5

Would you please give the reported inhibition of "O=C(O)Cc1cccc2c(=O)c3c(oc12)-c1ccccc1OC(=O)N3" with Aminopeptidase N (Homo sapiens)?
19

Would you please give the reported inhibition of "O=C(O)Cc1cccc2c(=O)c([N+](=O)[O-])c(-c3ccccc3[N+](=O)[O-])oc12" with Aminopeptidase N (Homo sapiens)?
88

Would you please give the reported inhibition of "O=CCc1cccc2c(=O)c([N+](=O)[O-])c(-c3ccccc3)oc12" with Aminopeptidase N (Homo sapiens)?
51
